Reported EC50 values for the following compounds.
Test system: primary human endothelial cells expressing luciferase under the control of the KLF2 promoter
protocol description: KLF2 induction cell based bioassay (GLuc KLF2 concentration response, luciferase reporter)
test context: 24 hours incubation, 11-point concentration response, EC50 = concentration where normalized curve passes 0.5, read-out: GLuc KLF2 Conc Response (EC50) Ave
measurement name: EC50 (nM)

>>> observed_measurement("C#CCCN1C(=O)c2oc3ccccc3c2OCC1(C)C(=O)NCc1ccccc1OC (stereo not shown) [Example 5]")
40
>>> observed_measurement("COc1ccccc1CNC(=O)C1(C)COc2c(oc3ccccc23)C(=O)N1CC(C)(C)OC (stereo not shown) [Example 3]")
60
>>> observed_measurement("COc1ccccc1CNC(=O)C1(C)COc2c(oc3ccccc23)C(=O)N1CC1(F)CCC1 (stereo not shown) [Example 2]")
20
>>> observed_measurement("C#CCCN1C(=O)c2oc3ccccc3c2OC[C@]1(C)C(=O)NCc1ccccc1OC [Example 6]")
20

###

System: primary human endothelial cells expressing luciferase under the control of the KLF2 promoter
protocol description: KLF2 induction cell based bioassay (GLuc KLF2 concentration response, luciferase reporter)
test context: 24 h, 24 hours incubation, 11-point concentration response, read-out: GLuc KLF2 Conc Response (IC50) Avg
pIC50: −log10 of the molar value.
measurement name: pIC50

>>> observed_measurement("COc1ccccc1CNC(=O)C1(C)COc2c(oc3ccccc23)C(=O)N1CC(C)(C)OC (stereo not shown)")
6.47
>>> observed_measurement("C#CCCN1C(=O)c2oc3ccccc3c2OCC1(C)C(=O)NCc1ccccc1OC (stereo not shown)")
6.82
>>> observed_measurement("COc1ccccc1CNC(=O)C1(C)COc2c(oc3ccccc23)C(=O)N1CC1(F)CCC1 (stereo not shown)")
6.70
>>> observed_measurement("C#CCCN1C(=O)c2oc3ccccc3c2OC[C@]1(C)C(=O)NCc1ccccc1OC")
7.15
